# Assay details: qHTS assay for small molecule disruptors of the mitochondrial membrane potential - 5 hr assay (AID 651755); note: nearly all actives have a fitted effect of over 40% in size
# Condition summary: JC-1-type ratio dye; series mostly up to 92.2 µM
Inconclusive results are not listed. Activity calls are given as the source filed them. Calls come from the whole dose curve.
Reply using exactly one outcome from yes for active, no for inactive

Example entries and their recorded answers appear below.
{"columns": ["Compound", "Group label"],
 "data": [
  ["c1ccc2c(c1)-c1cccc3c1c-2cc1ccccc13", "no"],
  ["O=C(/C=C/c1ccc(O)c(O)c1)OC1C[C@](O)(C(=O)O)C[C@@H](O)[C@H]1O (stereo partly specified)", "no"],
  ["CCCCCCCC[N+](CCCCCCCC)(CCCCCCCC)CCCCCCCC", "yes"],
  ["O=C=Nc1ccc(Cc2ccc(N=C=O)cc2)cc1", "no"],
  ["O=[N+]([O-])c1cc([N+](=O)[O-])c2ccc(S(=O)(=O)O)cc2c1O", "no"]
]}

Name the outcome recorded for CCC(C)Nc1ccc(NC(C)CC)cc1 (stereo unspecified) in the assay. yes

This collection of values is drawn from PubChem BioAssay (NCATS).
